pIC50 reference
System Tested: PR-B (Homo sapiens)
Construct: expressed in transfected cells
Sequence (P06401 1-933): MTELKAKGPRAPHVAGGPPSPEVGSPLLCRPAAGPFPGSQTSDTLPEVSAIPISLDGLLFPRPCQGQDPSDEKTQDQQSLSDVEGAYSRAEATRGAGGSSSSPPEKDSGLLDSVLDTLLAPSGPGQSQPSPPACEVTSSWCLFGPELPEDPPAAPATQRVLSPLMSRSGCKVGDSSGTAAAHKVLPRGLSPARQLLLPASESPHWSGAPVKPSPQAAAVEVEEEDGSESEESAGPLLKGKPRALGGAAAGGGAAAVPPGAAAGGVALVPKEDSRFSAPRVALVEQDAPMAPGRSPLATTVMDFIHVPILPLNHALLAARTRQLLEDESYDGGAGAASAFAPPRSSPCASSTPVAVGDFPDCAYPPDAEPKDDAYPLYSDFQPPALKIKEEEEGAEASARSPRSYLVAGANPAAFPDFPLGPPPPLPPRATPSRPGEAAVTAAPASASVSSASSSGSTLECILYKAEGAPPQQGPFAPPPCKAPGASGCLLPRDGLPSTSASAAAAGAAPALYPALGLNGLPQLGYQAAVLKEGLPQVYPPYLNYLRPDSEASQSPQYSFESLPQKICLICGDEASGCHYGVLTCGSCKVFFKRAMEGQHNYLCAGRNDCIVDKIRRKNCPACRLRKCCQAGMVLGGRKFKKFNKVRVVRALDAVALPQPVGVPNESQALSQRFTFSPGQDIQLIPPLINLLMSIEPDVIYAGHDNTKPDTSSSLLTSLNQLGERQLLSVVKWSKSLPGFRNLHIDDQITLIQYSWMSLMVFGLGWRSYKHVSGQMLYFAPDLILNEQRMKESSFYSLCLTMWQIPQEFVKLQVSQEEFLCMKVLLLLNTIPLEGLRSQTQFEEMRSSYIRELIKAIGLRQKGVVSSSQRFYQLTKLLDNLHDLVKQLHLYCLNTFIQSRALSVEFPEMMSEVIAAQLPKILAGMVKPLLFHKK
Method Description: Transactivation test on antagonistic activity on PR-B
Format: cell-based
Condition Details: antagonistic activity on PR-B; read-out: IC50
// pIC50 here means minus log10 of the molar concentration (mol/L)

The cases that follow already have their pIC50 on record.
# Compound, pIC50
records = [
    ("N#Cc1ccc(NC(=O)C(O)(Cc2ccccc2)C2CCCC2)cc1C(F)(F)F (racemic) [Example 39]", 7.77),
    ("COc1ccc(CC(O)(C(=O)Nc2ccc(C#N)c(Cl)c2)C2CCCCC2)cc1 (racemic) [Example 16]", 7.77),
    ("N#Cc1ccc(NC(=O)C(O)(Cc2ccccc2)C2CCCC2)cc1Cl (racemic) [Example 32]", 7.57),
]

Okay, now this compound:
Req: # query: pIC50 of entry N#Cc1ccc(NC(=O)C(O)(C#Cc2ccccc2)C2CCCCC2)cc1Cl (single isomer, unassigned; (-)) [Example 2b]
Resp: 8.74

----------
System Tested: PR-A (Homo sapiens)
Sequence (P06401 1-769 isoform P06401-2): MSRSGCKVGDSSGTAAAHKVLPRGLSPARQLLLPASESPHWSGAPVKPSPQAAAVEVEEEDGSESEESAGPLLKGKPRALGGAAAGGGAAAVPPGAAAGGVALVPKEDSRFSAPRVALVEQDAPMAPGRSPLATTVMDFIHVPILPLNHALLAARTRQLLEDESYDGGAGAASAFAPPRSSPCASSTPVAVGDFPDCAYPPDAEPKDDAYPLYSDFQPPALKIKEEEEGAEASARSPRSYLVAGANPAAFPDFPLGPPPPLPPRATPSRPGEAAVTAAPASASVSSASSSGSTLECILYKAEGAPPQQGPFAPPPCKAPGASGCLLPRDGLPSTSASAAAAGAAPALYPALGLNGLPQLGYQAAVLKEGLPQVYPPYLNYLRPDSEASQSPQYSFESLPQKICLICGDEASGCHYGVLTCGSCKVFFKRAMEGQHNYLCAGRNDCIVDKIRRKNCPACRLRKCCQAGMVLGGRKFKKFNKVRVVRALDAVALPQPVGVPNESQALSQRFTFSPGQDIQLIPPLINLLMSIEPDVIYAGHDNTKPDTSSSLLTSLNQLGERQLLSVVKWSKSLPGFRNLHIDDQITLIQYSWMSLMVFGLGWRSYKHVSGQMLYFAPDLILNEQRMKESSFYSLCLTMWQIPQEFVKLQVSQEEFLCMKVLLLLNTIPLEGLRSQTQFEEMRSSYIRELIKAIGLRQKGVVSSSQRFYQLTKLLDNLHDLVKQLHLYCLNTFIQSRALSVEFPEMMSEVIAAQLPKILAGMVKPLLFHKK
Method Description: Transactivation test on antagonistic activity at PR-A
Condition Details: antagonism at PR-A
// NB: equality with 20 nM counts as condition not met; only IC50 strictly below is condition met

Example cases with answers are listed next.
# Molecule, Group
measured = [
    ("CNC(=O)c1cccc(-c2cccc(CC(O)(C(=O)Nc3ccc(C#N)c(C(F)(F)F)c3)C3CCN(C(=O)c4ccccc4)CC3)c2)c1 (single isomer, unassigned)", "condition met"),
    ("N#Cc1ccc(NC(=O)C(O)(Cc2cccc(-c3cccc(C(=O)N4CCOCC4)c3)c2)C2CCN(C(=O)c3ccccc3)CC2)cc1C(F)(F)F (stereo not drawn)", "condition not met"),
    ("CC(=O)Nc1cccc(-c2cccc(CC(O)(C(=O)Nc3ccc(C#N)c(C(F)(F)F)c3)C3CCCCC3)c2)c1 (stereo not drawn)", "condition met"),
    ("N#Cc1ccc(NC(=O)C(O)(Cc2ccccc2)C2CCN(C(=O)c3ccno3)CC2)cc1C(F)(F)F (single isomer, unassigned)", "condition not met"),
    ("N#Cc1ccc(NC(=O)C(O)(Cc2cccc(-c3ccc(C(=O)CO)cc3)c2)C2CCCCC2)cc1C(F)(F)F (stereo not drawn)", "condition not met"),
]

Req: I wonder whether N#Cc1ccc(NC(=O)C(O)(Cc2ccccc2)C2CCN(S(=O)(=O)c3cccc(Cl)c3)CC2)cc1C(F)(F)F (single isomer, unassigned) has IC50 below 20 nM. Can you tell?
Resp: condition met

Req: Same for N#Cc1ccc(NC(=O)C(O)(Cc2cccc(O)c2)C2CCCCC2)cc1C(F)(F)F (single isomer, unassigned) [Example 200b]
Resp: condition met

Req: Also CS(=O)(=O)N1CCC(C(O)(Cc2ccccc2)C(=O)Nc2ccc(C#N)c(C(F)(F)F)c2)CC1 (single isomer, unassigned) ?
Resp: condition not met

Req: Continue with N#Cc1ccc(NC(=O)C(O)(Cc2ccccc2)C2CCN(C(=O)C3CC3)CC2)cc1C(F)(F)F (single isomer, unassigned)
Resp: condition not met

Req: Please answer likewise for CNC(=O)c1cccc(-c2cccc(CC(O)(C(=O)Nc3ccc(C#N)c(C(F)(F)F)c3)C3CCN(S(=O)(=O)c4cccc(F)c4)CC3)c2)c1 (stereo not drawn)
Resp: condition met

Req: What about CNS(=O)(=O)c1ccc(-c2cccc(C[C@](O)(C(=O)Nc3ccc(C#N)c(C(F)(F)F)c3)C3CCCCC3)c2)cc1 (stereo in doubt) ?
Resp: condition not met

Req: Lookup Cn1c(C#N)ccc1NC(=O)C(O)(Cc1ccccc1)C1CCCCC1 (stereo not drawn)
Resp: condition not met
